target: recombinant human norepinephrine transporter (Homo sapiens, UniProt P23975)
Construct: expressed in transfected cells; host or cells: HEK293 or MDCK
Sequence (P23975 whole entry): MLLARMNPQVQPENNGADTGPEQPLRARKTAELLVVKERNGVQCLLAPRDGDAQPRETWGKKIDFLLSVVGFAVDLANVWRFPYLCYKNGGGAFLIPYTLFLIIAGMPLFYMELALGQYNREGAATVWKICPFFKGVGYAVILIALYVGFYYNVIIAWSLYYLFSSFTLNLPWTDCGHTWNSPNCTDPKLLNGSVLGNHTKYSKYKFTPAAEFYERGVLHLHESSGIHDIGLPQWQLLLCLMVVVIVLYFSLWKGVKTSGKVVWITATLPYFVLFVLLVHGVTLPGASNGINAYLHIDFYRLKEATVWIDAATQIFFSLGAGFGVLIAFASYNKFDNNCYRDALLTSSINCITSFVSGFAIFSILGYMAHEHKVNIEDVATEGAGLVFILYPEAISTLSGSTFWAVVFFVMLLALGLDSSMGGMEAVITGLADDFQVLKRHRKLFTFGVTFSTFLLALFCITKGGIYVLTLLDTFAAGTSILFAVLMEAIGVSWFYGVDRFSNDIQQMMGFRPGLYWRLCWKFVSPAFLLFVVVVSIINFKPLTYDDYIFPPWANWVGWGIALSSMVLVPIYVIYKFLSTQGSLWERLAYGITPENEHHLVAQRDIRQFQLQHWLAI
measurementDescription: Norepinephrine functional uptake assay for human reuptake transporter
Assay type: cell-based
runParameters: Human IC50 (nM) NET, [3H]norepinephrine uptake, HEK293 or MDCK cells expressing human norepinephrine transporter
testReadout: log10 of IC50 (log10 of the value in nM)

compound="CNC[C@H]1Cc2ccccc2[C@H](c2ccc(Cl)c(Cl)c2)C1 (single isomer, unassigned) [Compound 15d]" testreadout="log10 of IC50" recordedmeasurement=2.57
compound="CN(C)C1CC(c2ccc(Cl)c(Cl)c2)c2ccccc2C1O (single isomer, unassigned) [Compound 23c]" testreadout="log10 of IC50" recordedmeasurement=1.56
compound="CNC[C@H]1Cc2ccccc2[C@H](c2ccc(Cl)c(Cl)c2)C1 (single isomer, unassigned) [Compound 15b]" testreadout="log10 of IC50" recordedmeasurement=2.10
compound="CN(C)[C@H]1Cc2ccccc2[C@H](c2ccc(Cl)c(Cl)c2)C1 (single isomer, unassigned) [Compound 8b]" testreadout="log10 of IC50" recordedmeasurement=2.24
compound="CN(C)[C@H]1Cc2ccccc2[C@H](c2ccc(Cl)c(Cl)c2)C1 (single isomer, unassigned) [Compound 8d]" testreadout="log10 of IC50" recordedmeasurement=1.99
compound="N[C@H]1Cc2ccccc2[C@H](c2ccc(Cl)c(Cl)c2)C1 (single isomer, unassigned) [Compound 6d]" testreadout="log10 of IC50" recordedmeasurement=2.24
compound="CC(N)[C@@H]1Cc2ccccc2[C@H](c2ccc(Cl)c(Cl)c2)C1 (stereo partly shown) [Compound 51]" testreadout="log10 of IC50" recordedmeasurement=1.08
